# ASSAYED TARGET: CDK2/Cyclin E1 (Homo sapiens, UniProt P24941)
# PROCEDURE SUMMARY: CDK2/Cyclin E1 Biochemical Assay (TR-FRET), 1 mM ATP
# DETAILS: 0.15 μM Rb (Ser780)-biotin substrate, pH7.0, 60 min preincubation, 90 min reaction, room temperature
Assign labels as follows, please: fulfilled for IC50 below 50 nM; not fulfilled for IC50 equal to or exceeding 50 nM.

COMPOUND: CN1c2ccc(Nc3cc([C@@H]4CC[C@H](OC(=O)NCC(C)(C)O)C4)[nH]n3)c(F)c2CS1(=O)=O (single isomer, unassigned) [Example 330b]
CLASS ASSIGNMENT: fulfilled
//
COMPOUND: CN(C(=O)O[C@H]1CC[C@@H](c2cc(Nc3ccc4c(c3F)CS(=O)(=O)N4)n[nH]2)C1)C1CCOC1 (relative stereo)
CLASS ASSIGNMENT: fulfilled
//
COMPOUND: CCNC(=O)O[C@H]1CC[C@@H](c2cc(Nc3cc4c(cc3F)S(=O)(=O)NC4)n[nH]2)C1 (relative stereo)
CLASS ASSIGNMENT: not fulfilled
//
COMPOUND: CC(C)NC(=O)O[C@H]1CC[C@@H](c2cc(Nc3ccc4c(c3F)NS(=O)(=O)N4)n[nH]2)C1 (relative stereo)
CLASS ASSIGNMENT: fulfilled
//
COMPOUND: CCCNC(=O)O[C@H]1CC[C@@H](c2cc(Nc3ccc4c(c3F)CCS(=O)(=O)N4)n[nH]2)C1 (relative stereo)
CLASS ASSIGNMENT: fulfilled
//
COMPOUND: CN1c2ccc(Nc3cc([C@@H]4CC[C@H](OC(=O)NC5CCOC5)C4)[nH]n3)cc2CS1(=O)=O (relative stereo)
CLASS ASSIGNMENT: not fulfilled

====

# ASSAYED TARGET: CDK1/Cyclin B1 (Homo sapiens)
# Sequence (P06493 whole entry): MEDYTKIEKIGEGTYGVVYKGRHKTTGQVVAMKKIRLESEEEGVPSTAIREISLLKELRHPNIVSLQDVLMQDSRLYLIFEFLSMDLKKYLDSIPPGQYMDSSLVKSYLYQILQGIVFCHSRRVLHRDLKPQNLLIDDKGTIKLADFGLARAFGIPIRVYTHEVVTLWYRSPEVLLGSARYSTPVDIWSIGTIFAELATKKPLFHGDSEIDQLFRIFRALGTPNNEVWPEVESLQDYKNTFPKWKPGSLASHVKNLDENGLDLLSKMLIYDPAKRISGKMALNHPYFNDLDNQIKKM
# Sequence (P14635 whole entry partner): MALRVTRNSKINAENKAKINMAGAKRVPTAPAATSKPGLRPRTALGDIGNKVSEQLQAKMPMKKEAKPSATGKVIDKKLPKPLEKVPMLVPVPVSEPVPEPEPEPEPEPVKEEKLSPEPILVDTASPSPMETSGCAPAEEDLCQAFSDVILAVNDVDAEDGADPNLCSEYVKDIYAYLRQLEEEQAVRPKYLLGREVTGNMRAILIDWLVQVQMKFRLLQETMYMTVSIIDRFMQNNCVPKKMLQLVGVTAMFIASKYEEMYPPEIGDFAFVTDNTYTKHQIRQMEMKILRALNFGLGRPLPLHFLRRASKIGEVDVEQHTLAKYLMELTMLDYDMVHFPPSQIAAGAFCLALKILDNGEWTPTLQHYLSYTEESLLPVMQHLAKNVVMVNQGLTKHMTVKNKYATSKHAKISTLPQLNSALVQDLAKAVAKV
# PROCEDURE SUMMARY: CDK1/Cyclin B1 Biochemical Assay (TR-FRET), 0.015 mM ATP
# DETAILS: 0.15 μM Rb (Ser780)-biotin substrate, pH7.0, 60 min preincubation, 120 min reaction, room temperature
pIC50: −log10 of the molar value.
Reported pIC50 values are given for each entry in this list.
REPORTED ENDPOINT: pIC50

MOLECULE: CC1(NC(=O)O[C@H]2CC[C@@H](c3cc(Nc4ccc5c(c4F)CS(=O)(=O)N5CC(F)(F)F)n[nH]3)C2)COC1 (relative stereo) [Example 409]
REL: =
MEASUREMENT: 6.68
//
MOLECULE: CC[C@H](C)NC(=O)O[C@H]1CC[C@@H](c2cc(Nc3ccc4c(c3)CCS(=O)(=O)N4)n[nH]2)C1 (relative stereo) [Example 248]
REL: =
MEASUREMENT: 7.31
//
MOLECULE: CC1(NC(=O)O[C@H]2CC[C@@H](c3cc(Nc4ccc5c(c4F)CS(=O)(=O)N5CCO)n[nH]3)C2)COC1 (relative stereo) [Example 390]
REL: =
MEASUREMENT: 6.63
//
MOLECULE: CC(C)NC(=O)O[C@H]1CC[C@@H](c2cc(Nc3cc(CO)c4c(c3F)CNS4(=O)=O)n[nH]2)C1 (relative stereo) [Example 365]
REL: <
MEASUREMENT: 5.00
//
MOLECULE: CC(C)(C)NC(=O)O[C@H]1CC[C@@H](c2cc(Nc3ccc4c(c3F)CNS4(=O)=O)n[nH]2)C1 (relative stereo) [Example 159]
REL: =
MEASUREMENT: 7.52
//
MOLECULE: CC(C)NC(=O)O[C@H]1CC[C@@H](c2cc(Nc3ccc4c(c3)S(=O)(=O)NC4C)[nH]n2)C1 (single isomer, unassigned) [Example 5d]
REL: =
MEASUREMENT: 7.35
